- Assay Details: CelltiterGlo viability cell assay
- Assay type: cell-based
- Experimental Setup: human, HCC1806 breast cancer cells, HCC1806, 6 day, 0.3 uM; read-out: viability Replicate 3
Reported Endpoint: viability at 6 day, 0.3 µM (%)
Your answer is read as %, so omit the unit and give the number.

Looking up COc1cc(OC)cc(-c2noc(N3CCN(C)C4(CCN(c5ccnc(C)c5)CC4)C3)n2)c1 [MRK-740] , I found its viability at 6 day, 0.3 µM recorded as 108

----------
- Assay Details: CelltiterGlo viability cell assay
- Assay type: cell-based
- Experimental Setup: human, RPMI-8226 cells (multiple myeloma line), 8226, 3 day, 30 uM; read-out: viability Average
Reported Endpoint: viability at 3 day, 30 µM (%)
# number only, unit % dropped from output

Please fill in: viability at 3 day, 30 µM reported for COc1cc(OC)cc(-c2noc(N3CCN(C)C4(CCN(c5ccnc(C)c5)CC4)C3)n2)c1 [MRK-740] = 54.9

----------
- Assay Details: CelltiterGlo viability cell assay
- Assay type: cell-based
- Experimental Setup: human, MDA-MB-436 breast cancer cells, MDA MB436, 6 day, 0.1 uM; read-out: viability Replicate 2
Reported Endpoint: viability at 6 day, 0.1 µM (%)
Write down the numeric answer in % and omit the unit.

The compound listed as `COc1cc(OC)cc(-c2noc(N3CCN(C)C4(CCN(c5ccnc(C)c5)CC4)C3)n2)c1` has a reported viability at 6 day, 0.1 µM of 101

----------
- Assay Details: CelltiterGlo viability cell assay
- Assay type: cell-based
- Experimental Setup: human, HCC1806 cells, HCC1806, 3 day, 0.1 uM; read-out: viability Replicate 3
Reported Endpoint: viability at 3 day, 0.1 µM (%)
Output spec: scalar in %, unitless text.

viability at 3 day, 0.1 µM for `COc1cc(OC)cc(-c2noc(N3CCN(C)C4(CCN(c5ccnc(C)c5)CC4)C3)n2)c1` is 97.6

----------
- Target Or System: PRDM9 (Homo sapiens, UniProt Q9NQV7)
- Construct: PRDM9 (amino acids: 195–415)
- Sequence (Q9NQV7 195-415): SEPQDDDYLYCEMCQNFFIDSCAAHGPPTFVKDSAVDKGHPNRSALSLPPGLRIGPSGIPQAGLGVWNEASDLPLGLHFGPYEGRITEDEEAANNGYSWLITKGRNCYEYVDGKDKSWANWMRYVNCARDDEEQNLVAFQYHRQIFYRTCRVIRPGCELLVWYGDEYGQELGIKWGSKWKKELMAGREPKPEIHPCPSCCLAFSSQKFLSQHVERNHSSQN
- Assay Details: MOA determination: IC50 at varying SAM or peptide concentrations (SPA)
- Format: biochemical
- Experimental Setup: 350 µM SAM, varying H3 1–25 peptide; read-out: Ki, calculated from Y intercept of Fig. 2e
Reported Endpoint: Ki

Item: `COc1cc(OC)cc(-c2noc(N3CCN(C)C4(CCN(c5ccnc(C)c5)CC4)C3)n2)c1` | Ki: 65 nM

----------
- Assay Details: CelltiterGlo viability cell assay
- Assay type: cell-based
- Experimental Setup: human, HCC1143 breast cancer cells, HCC1143, 6 day, 9.5 uM; read-out: viability Replicate 2
Reported Endpoint: viability at 6 day, 9.5 µM
Form field: result (number plus unit)

viability at 6 day, 9.5 µM reading for `COc1cc(OC)cc(-c2noc(N3CCN(C)C4(CCN(c5ccnc(C)c5)CC4)C3)n2)c1` : 78.6%

----------
- Assay Details: CelltiterGlo viability cell assay
- Type: cell-based
- Experimental Setup: human, HCC1143 breast cancer cells, HCC1143, 6 day, 0.03 uM; read-out: viability Replicate 2
- Description: Supplementary Figure 13. […] Viability of (a) Multiple Myeloma lines and (b) Breast Cancer cell lines following 3 or 6 days treatment with […] manufacturer’s instructions as described in the Supplementary methods. Data are normalized to DMSO control. N=3 biological replicates, +/- SEM. Source data are provided as a Source Data […] CelltiterGlo viability cell assay […]
Reported Endpoint: viability at 6 day, 0.03 µM (%)
Express the result in % but write the number alone.

// viability at 6 day, 0.03 µM lookup, compound = `COc1cc(OC)cc(-c2noc(N3CCN(C)C4(CCN(c5ccnc(C)c5)CC4)C3)n2)c1` , result: 101

----------
- Assay Details: CelltiterGlo viability cell assay
- Type: cell-based
- Experimental Setup: human, MDA-MB-436 breast cancer cells, MDA MB436, 6 day, 3 uM; read-out: viability Replicate 2
Reported Endpoint: viability at 6 day, 3 µM (%)
// note: answer is a bare numeric in %

Lab note: measured viability at 6 day, 3 µM of COc1cc(OC)cc(-c2noc(N3CCN(C)C4(CCN(c5ccnc(C)c5)CC4)C3)n2)c1 [MRK-740] was 112

----------
- Assay Details: CelltiterGlo viability cell assay
- Assay type: cell-based
- Experimental Setup: human, HCC1806 cells, HCC1806, 3 day, 0.3 uM; read-out: viability Replicate 1
Reported Endpoint: viability at 3 day, 0.3 µM
The reply must contain the numeric value and, after it, the unit.

Recorded viability at 3 day, 0.3 µM (compound `COc1cc(OC)cc(-c2noc(N3CCN(C)C4(CCN(c5ccnc(C)c5)CC4)C3)n2)c1` ): 109%

----------
- Assay Details: CelltiterGlo viability cell assay
- Type: cell-based
- Experimental Setup: human, SKMM2 cells (multiple myeloma line), SKMM2, 3 day, 9.5 uM; read-out: viability Replicate 3
Reported Endpoint: viability at 3 day, 9.5 µM (%)
Field format: number, assumed %, no unit text.

Quick note, viability at 3 day, 9.5 µM for `COc1cc(OC)cc(-c2noc(N3CCN(C)C4(CCN(c5ccnc(C)c5)CC4)C3)n2)c1` landed at 94.7

----------
- Assay Details: CelltiterGlo viability cell assay
- Format: cell-based
- Experimental Setup: human, HCC1143 breast cancer cells, HCC1143, 6 day, 3 uM; read-out: viability Replicate 3
Reported Endpoint: viability at 6 day, 3 µM (%)
Number in %, nothing else.

Recorded result, `COc1cc(OC)cc(-c2noc(N3CCN(C)C4(CCN(c5ccnc(C)c5)CC4)C3)n2)c1` , viability at 6 day, 3 µM: 110

----------
- Assay Details: CelltiterGlo viability cell assay
- Assay type: cell-based
- Experimental Setup: human, HCC1806 breast cancer cells, HCC1806, 3 day, 9.5 uM; read-out: viability Replicate 3
Reported Endpoint: viability at 3 day, 9.5 µM (%)
I only need the number, in %, no unit after it.

get_value(item= `COc1cc(OC)cc(-c2noc(N3CCN(C)C4(CCN(c5ccnc(C)c5)CC4)C3)n2)c1` , readout=viability at 3 day, 9.5 µM) returns 20.5

----------
- Assay Details: CelltiterGlo viability cell assay
- Type: cell-based
- Experimental Setup: human, HCC1806 breast cancer cells, HCC1806, 6 day, 3 uM; read-out: viability Replicate 3
Reported Endpoint: viability at 6 day, 3 µM (%)
Could you give me the number in %? Just the number is fine.

// `COc1cc(OC)cc(-c2noc(N3CCN(C)C4(CCN(c5ccnc(C)c5)CC4)C3)n2)c1` : viability at 6 day, 3 µM value = 69.8

----------
- Assay Details: CelltiterGlo viability cell assay
- Type: cell-based
- Experimental Setup: human, MDA-MB-436 breast cancer cells, MDA MB436, 6 day, 0.01 uM; read-out: viability Replicate 2
Reported Endpoint: viability at 6 day, 0.01 µM (%)
Unit % implied. Number only.

Item: `COc1cc(OC)cc(-c2noc(N3CCN(C)C4(CCN(c5ccnc(C)c5)CC4)C3)n2)c1` | viability at 6 day, 0.01 µM: 106

----------
- Assay Details: CelltiterGlo viability cell assay
- Format: cell-based
- Experimental Setup: human, RPMI-8226 multiple myeloma cells, 8226, 6 day, 0.3 uM; read-out: viability Average
Reported Endpoint: viability at 6 day, 0.3 µM (%)
Give just the number in %; leave the unit off.

Looking up `COc1cc(OC)cc(-c2noc(N3CCN(C)C4(CCN(c5ccnc(C)c5)CC4)C3)n2)c1` , I found its viability at 6 day, 0.3 µM recorded as 98.9

----------
- Assay Details: CelltiterGlo viability cell assay
- Assay type: cell-based
- Experimental Setup: human, HCC1143 breast cancer cells, HCC1143, 3 day, 30 uM; read-out: viability Replicate 1
Reported Endpoint: viability at 3 day, 30 µM (%)
# number only, unit % dropped from output

# viability at 3 day, 30 µM (compound: COc1cc(OC)cc(-c2noc(N3CCN(C)C4(CCN(c5ccnc(C)c5)CC4)C3)n2)c1 [MRK-740] ) is 27.4

----------
- Assay Details: CelltiterGlo viability cell assay
- Assay type: cell-based
- Experimental Setup: human, MDA-MB-436 breast cancer cells, MDA MB436, 6 day, 30 uM; read-out: viability Average
- Source text: Supplementary Figure 13. […] Viability of (a) Multiple Myeloma lines and (b) Breast Cancer cell lines following 3 or 6 days treatment with […] manufacturer’s instructions as described in the Supplementary methods. Data are normalized to DMSO control. N=3 biological replicates, +/- SEM. Source data are provided as a Source Data […] CelltiterGlo viability cell assay […]
Reported Endpoint: viability at 6 day, 30 µM (%)
Give the number; % is assumed, so skip it.

Item: COc1cc(OC)cc(-c2noc(N3CCN(C)C4(CCN(c5ccnc(C)c5)CC4)C3)n2)c1 [MRK-740] | viability at 6 day, 30 µM: 35.6
